# Tested on: DU-4475
# Test Protocol: normalised response (% of control), CellTiter-Glo; higher = more viable cells (100 = DMSO, 0 = benzethonium chloride kill control)
# Recorded Conditions: incubation time: 72 h
Measured Parameter: normalised response (%)
Give bare numbers, in %.

Entry COc1ncc(-c2ccc3nccc(-c4ccnnc4)c3c2)cc1NS(=O)(=O)c1ccc(F)cc1F (1000 nM) : reported normalised response = ?
9.21

Entry CS(=O)(=O)CCNCc1ccc(-c2ccc3ncnc(Nc4ccc(OCc5cccc(F)c5)c(Cl)c4)c3c2)o1 [Lapatinib] (1000 nM) : reported normalised response = ?
106

Below: the item to evaluate.
Entry COC1=CC(c2cc3ccccc3[nH]2)=N/C1=C\c1[nH]c(C)cc1C [Obatoclax] (10000 nM) : reported normalised response = ?
84

====

# System: DU-4475
# Test Protocol: normalised viability (% of control), CellTiter-Blue; higher = more viable cells (100 = DMSO, 0 = benzethonium chloride kill control)
# Recorded Conditions: incubation time: 72 h
Measured Parameter: normalised viability
Your answer should be a number followed by the unit of measure.

Answered cases to consult:
Entry O=C(c1ccc(OCCN2CCCCC2)cc1)c1c(-c2ccc(O)cc2)sc2cc(O)ccc12 [Raloxifene] (1 nM) : reported normalised viability = ?
110%

Entry COc1ccc(C2=N[C@@H](c3ccc(Cl)cc3)[C@@H](c3ccc(Cl)cc3)N2C(=O)N2CCNC(=O)C2)c(OC(C)C)c1 [Nutlin-3] (1 nM) : reported normalised viability = ?
82.5%

Below: the item to evaluate.
Entry COc1cccc2c1C(=O)c1c(O)c3c(c(O)c1C2=O)C[C@@](O)(C(C)=O)C[C@@H]3O[C@H]1C[C@H](N)[C@H](O)[C@H](C)O1 [Daunorubicin] (0.1 nM) : reported normalised viability = ?
88.2%

====

# Tested on: HDQ-P1
# Test Protocol: drug sensitivity score (DSS), CellTiter-Glo (DSS (AUC-based score)); higher = stronger drug effect (viability inhibition or cytotoxicity); extreme values may be limits of the assay
# Recorded Conditions: incubation time: 72 h
Measured Parameter: drug sensitivity score

Answered cases to consult:
Report drug sensitivity score for `Cn1c(=O)c(F)c(Nc2ccc(I)cc2F)c2c(=O)n(C[C@@H](O)CO)cnc21` tested on HDQ-P1.
10.1

Report drug sensitivity score for `O=c1[nH]cc(F)c(=O)[nH]1` tested on HDQ-P1.
0

Report drug sensitivity score for `COC1=CC(c2cc3ccccc3[nH]2)=N/C1=C\c1[nH]c(C)cc1C` tested on HDQ-P1.
0

Below: the item to evaluate.
Report drug sensitivity score for `COC(=O)C[C@](O)(CCCC(C)(C)O)C(=O)O[C@@H]1C(OC)=C[C@]23CCCN2CCc2cc4c(cc2[C@H]13)OCO4` tested on HDQ-P1.
23.1

====

# System: BT-474
# Test Protocol: normalised viability (% of control), CellTiter-Blue; higher = more viable cells (about 100 = DMSO control)
# Recorded Conditions: 10 nM; incubation time: 72 h
Measured Parameter: normalised viability (%)
Numbers only, in %.

Entry `C#Cc1cccc(Nc2ncnc3cc(OC)c(OCCCCCCC(=O)NO)cc23)c1` : reported normalised viability = ?
108

Entry `O=c1[nH]cc(F)c(=O)[nH]1` : reported normalised viability = ?
108

Entry c1ccc(C2CN3CCSC3=N2)cc1 (stereo not given) : reported normalised viability = ?
111

Entry `O=C(c1ccc(OCCN2CCCCC2)cc1)c1c(-c2ccc(O)cc2)sc2cc(O)ccc12` : reported normalised viability = ?
100

New cases:
Entry `CCCC(CCC)C(=O)O` : reported normalised viability = ?
113
